Hey, just so you know, these numbers are from patent US20230310428A1.

Give measured pIC50 for each item. Keep answers brief.
target: various mutants of kinase EGFR (BaF3 cell lines stably transfected with kinase) (Homo sapiens, UniProt P00533, L858R/T790M); construct: expressed in transfected cells; host or cells: BaF3; test: Growth inhibitory activity of compounds on BaF3 cell lines stably transfected with kinase (MTS, 48 h); format: cell-based; details: BaF3 cell line stably transfected with EGFR L858R/T790M, read-out: L858R/ T790M growth inhibitory activity IC50
Sequence (P00533 25-1210 T790M/L858R): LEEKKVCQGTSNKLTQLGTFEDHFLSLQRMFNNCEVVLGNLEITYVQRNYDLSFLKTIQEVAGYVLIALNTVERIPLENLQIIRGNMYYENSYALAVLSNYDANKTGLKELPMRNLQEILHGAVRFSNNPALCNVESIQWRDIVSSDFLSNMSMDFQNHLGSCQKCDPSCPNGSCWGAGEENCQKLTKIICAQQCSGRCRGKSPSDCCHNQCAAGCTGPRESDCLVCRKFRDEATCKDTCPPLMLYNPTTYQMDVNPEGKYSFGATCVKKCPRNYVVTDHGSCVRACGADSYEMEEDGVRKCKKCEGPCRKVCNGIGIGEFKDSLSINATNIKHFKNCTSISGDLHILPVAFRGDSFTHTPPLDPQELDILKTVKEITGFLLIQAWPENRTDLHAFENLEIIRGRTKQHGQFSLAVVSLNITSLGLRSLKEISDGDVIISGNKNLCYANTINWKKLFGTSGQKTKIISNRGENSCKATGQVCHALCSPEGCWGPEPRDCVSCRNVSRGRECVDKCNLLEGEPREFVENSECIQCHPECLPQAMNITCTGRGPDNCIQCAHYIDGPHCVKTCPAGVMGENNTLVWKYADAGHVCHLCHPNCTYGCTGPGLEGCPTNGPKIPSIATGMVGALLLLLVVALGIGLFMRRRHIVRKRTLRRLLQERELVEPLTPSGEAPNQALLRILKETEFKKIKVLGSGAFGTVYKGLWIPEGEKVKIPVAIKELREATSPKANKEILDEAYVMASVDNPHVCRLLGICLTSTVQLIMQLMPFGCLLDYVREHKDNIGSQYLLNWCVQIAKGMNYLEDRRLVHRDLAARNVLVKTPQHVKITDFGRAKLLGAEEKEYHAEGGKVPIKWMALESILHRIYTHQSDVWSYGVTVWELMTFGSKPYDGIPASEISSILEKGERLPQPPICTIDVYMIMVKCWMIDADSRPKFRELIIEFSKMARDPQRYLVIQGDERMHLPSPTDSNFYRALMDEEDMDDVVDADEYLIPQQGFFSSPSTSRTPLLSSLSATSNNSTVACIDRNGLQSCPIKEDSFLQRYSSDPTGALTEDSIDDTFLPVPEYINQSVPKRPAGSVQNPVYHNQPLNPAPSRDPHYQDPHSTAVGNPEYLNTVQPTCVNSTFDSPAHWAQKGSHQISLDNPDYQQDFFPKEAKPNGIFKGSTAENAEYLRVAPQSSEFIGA
pIC50: −log10 of the molar value.

Solved cases below.
>  <molSmiles>
COc1nc(N2CCC(N3CCN(C)CC3)CC2)ccc1Nc1ncc(Br)c(Nc2ccc3nccnc3c2N(C2CC2)S(C)(=O)=O)n1

>  <pIC50>
≥ 7.30

$$$$
>  <molSmiles>
COc1ccc(N2CCC(O)CC2)cc1Nc1ncc(Cl)c(Nc2ccc3nccnc3c2N(C)S(=O)(=O)C2CC2)n1

>  <pIC50>
6.30 to 7.30

$$$$
>  <molSmiles>
CCc1cc(Nc2ncc(Br)c(Nc3ccc4nccnc4c3N(C)S(C)(=O)=O)n2)c(OC)cc1C(=O)N1CCC(N2CCN(C)CC2)CC1

>  <pIC50>
6.30 to 7.30

$$$$

# evaluate next
Tell me measured pIC50 for `CN1CCN(C2CCN(c3c(F)cc(Nc4ncc(Br)c(Nc5ccc6nccnc6c5N(C)S(C)(=O)=O)n4)cc3F)CC2)CC1` please. ≥ 7.30
